system: WI-38; assay: Antiproliferative activity against human WI-38 cells assessed as cell growth inhibition measured after 48 hrs by MTT assay; format: functional, cell-based; settings: WI-38, 48 h
MEASURE: IC50

Here's what some known entries look like.
> print(dat)
                                test.smiles  data.value
1     COc1ccc2c3c(nccc13)C(=O)c1cc(O)ccc1-2     > 40 µM
2                   O=c1[nH]cc(F)c(=O)[nH]1     > 40 µM
3  O=C1c2cc(OCc3ccccc3)ccc2-c2cccc3ccnc1c23     > 40 µM
4        COc1ccc2c(c1)C(=O)c1nccc3cccc-2c13     28.7 µM
5           O=C1c2c(F)cccc2-c2cccc3ccnc1c23     > 40 µM
6           O=C1c2cc(O)ccc2-c2cccc3ccnc1c23     > 40 µM
7       O=C1c2cc3c(cc2-c2cccc4ccnc1c24)OCO3     > 40 µM
8          O=C1c2ccc(Cl)cc2-c2cccc3ccnc1c23     > 40 µM

# input molecule: `COc1cc2c3c(nccc3c1OC)C(=O)c1cc(OCc3ccccc3)ccc1-2` ; wanted: its IC50
35.1 µM

# input molecule: `O=C1c2ccccc2-c2cccc3ccnc1c23` ; wanted: its IC50
20.2 µM

# input molecule: `Cc1ccc2c(c1)-c1cccc3ccnc(c13)C2=O` ; wanted: its IC50
32.4 µM

# input molecule: `Cc1ccc2c(c1)C(=O)c1nccc3cccc-2c13` ; wanted: its IC50
28.4 µM

Where these numbers come from: ChEMBL document CHEMBL5131473
